Experiment: DUSP6 inhibitors restoring Erk phosphorylation by chemical complementation, primary imaging in DUSP6-transfected HeLa (AID 609)
Conditions: HeLa MKP-3 transfected, phospho-Erk imaging KS statistic; measured here: cell density z-score; at 10 µM; cells stimulated with TPA for 15 min
The threshold is inclusive: z-score of exactly -0.2 counts as Satisfied; values below receive Not satisfied.

# count of solved cases: 5
>  <compound>
CC1CN(C2CCN(C(=O)COc3ccccc3)CC2)CC(C)O1 (configuration not stated)

>  <group>
Not satisfied

$$$$
>  <compound>
CCC1(C)Cc2c(sc3c2c(=O)n(C)c2nnc(SCc4ccccc4)n32)CO1 (configuration not stated)

>  <group>
Satisfied

$$$$
>  <compound>
C=C1[C@@H](C)C2[C@H](Cc3ccccc3)NC(=O)[C@]23OC(=O)CC[C@H](O)CCC[C@H](C)C/C=C/[C@H]3[C@@H]1O (some centres not stated)

>  <group>
Not satisfied

$$$$
>  <compound>
CNC(=O)Nc1cccc(NC(=O)NC)n1

>  <group>
Satisfied

$$$$
>  <compound>
Cn1c(=O)[nH]c(=O)c2c1nc(N(CCO)Cc1ccccc1)n2Cc1ccccc1Cl

>  <group>
Satisfied

$$$$

[in] Quick check: does CC1CCc2cc(F)cc3c(O)c(C(=O)Nc4cnccn4)c(=O)n1c23 (configuration not stated) have z-score greater than or equal to -0.2?
[out] Satisfied

[in] Would you say COCCNc1cc(C)c(C#N)c2nc3ccccc3n12 shows z-score at minimum -0.2?
[out] Not satisfied

[in] Reported z-score reaches at least -0.2 for CCCCCC(=O)N1CC2(CC)CN(C(=O)CCCCC)CC(CC)(C1)C2=O ?
[out] Satisfied

[in] Form field: z-score at least -0.2? Entry: NC(=O)c1cc(-c2ccccc2)nc(Oc2ccccc2)n1
[out] Not satisfied

[in] # bool: z-score of Cc1nc(N2CCN(Cc3ccccc3)CC2)c(C#N)c2c1COC(C)(C)C2 >= -0.2
[out] Satisfied

[in] Has CCCCOc1ccc(OCCCN2CCOCC2)cc1 a recorded z-score greater than or equal to -0.2?
[out] Not satisfied

====

Property: fluorescence slope; scope: individual compounds
Target: Voltage-gated potassium channel subunit beta-2 (Rattus norvegicus) (UniProt P62483)
Sequence (P62483 whole entry, looked up): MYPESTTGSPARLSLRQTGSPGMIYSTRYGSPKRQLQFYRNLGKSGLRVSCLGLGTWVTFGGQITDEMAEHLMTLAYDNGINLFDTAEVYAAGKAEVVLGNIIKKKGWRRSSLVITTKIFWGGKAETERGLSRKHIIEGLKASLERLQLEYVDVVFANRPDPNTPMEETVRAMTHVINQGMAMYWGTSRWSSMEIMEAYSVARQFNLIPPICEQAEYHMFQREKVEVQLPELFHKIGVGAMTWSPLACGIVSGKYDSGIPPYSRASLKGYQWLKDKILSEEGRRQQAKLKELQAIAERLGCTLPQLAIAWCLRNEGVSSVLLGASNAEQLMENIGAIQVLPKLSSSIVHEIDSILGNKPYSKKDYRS
Assay: KvBeta enzyme negative modulators, primary screen, biochemical, NADPH fluorescence (AID 622);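 further: slope of raw intensity against log time taken from 70 to 1610 s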
Conditions: recombinant KvBeta, 4-cyanobenzaldehyde reduction, at 10 µM, stronger effect = higher value
// response body must contain only the number

# example entries with known answers
>  <compound>
COc1ccc(CN2CCC(=O)NC2=O)cc1

>  <study-system>
Voltage-gated potassium channel subunit beta-2 (Rattus norvegicus) (UniProt P62483)

>  <quantity-measured>
fluorescence slope

>  <value-reported>
-0.502

$$$$
>  <compound>
CNS(=O)(=O)c1cccc2nsnc12

>  <study-system>
Voltage-gated potassium channel subunit beta-2 (Rattus norvegicus) (UniProt P62483)

>  <quantity-measured>
fluorescence slope

>  <value-reported>
-0.51

$$$$
>  <compound>
CC(=O)OCC[N+](C)(C)C

>  <study-system>
Voltage-gated potassium channel subunit beta-2 (Rattus norvegicus) (UniProt P62483)

>  <quantity-measured>
fluorescence slope

>  <value-reported>
-0.431

$$$$
>  <compound>
CC(=O)Nc1ccccc1O

>  <study-system>
Voltage-gated potassium channel subunit beta-2 (Rattus norvegicus) (UniProt P62483)

>  <quantity-measured>
fluorescence slope

>  <value-reported>
-0.439

$$$$

[in] Would you mind telling me what fluorescence slope value was observed for CN1CC=C2C(C#N)=C(N)C(C#N)(C#N)[C@H](c3cccc(Cl)c3)C2C1 (some centres not stated) ?
[out] -0.368

[in] Please look up its fluorescence slope: CC(NCCc1ccc(O)cc1)C(O)c1ccc(O)cc1 (configuration not stated)
[out] -0.474

[in] Recorded fluorescence slope of COc1ccc(OCC(=O)N2CCN(C(=O)c3cccc4ccccc34)CC2)cc1 , please.
[out] -0.448

[in] What does the record list as fluorescence slope for COC(=O)c1cc(Br)c(=O)n(Cc2ccc3c(c2)OCO3)c1 ?
[out] -0.501

[in] If you can, please state the reported fluorescence slope value of CC1(C)Cc2c(c(N3CCOCC3)nc3snc(N)c23)CO1 .
[out] -0.281

[in] Which fluorescence slope value is on record for Cc1cc(C)n(CC(=O)N2c3ccccc3Sc3ccccc32)n1 ?
[out] -0.508

[in] Look up fluorescence slope for this compound: CCOC(=O)CSc1nc(N)c(C#N)c(-c2ccc(OC)cc2)c1C#N
[out] -0.52

[in] Could you share which fluorescence slope value was measured for CNC(=O)c1ncnnc1N(C)C(=O)NCc1ccccc1 ?
[out] -0.531

[in] Suppose we examine the compound Cc1cc(=O)n2[nH]cnc2n1 ; what fluorescence slope value has been reported?
[out] -0.502

[in] Look up fluorescence slope: Cc1cccc(OCC(=O)N2CCC(N3CCOCC3)CC2)c1
[out] -0.406
